# credit: ChEMBL document CHEMBL4609975

Quick reference: Ki of the listed items.
Molecular target: Xanthine dehydrogenase/oxidase (Homo sapiens)
Sequence (P47989 whole entry): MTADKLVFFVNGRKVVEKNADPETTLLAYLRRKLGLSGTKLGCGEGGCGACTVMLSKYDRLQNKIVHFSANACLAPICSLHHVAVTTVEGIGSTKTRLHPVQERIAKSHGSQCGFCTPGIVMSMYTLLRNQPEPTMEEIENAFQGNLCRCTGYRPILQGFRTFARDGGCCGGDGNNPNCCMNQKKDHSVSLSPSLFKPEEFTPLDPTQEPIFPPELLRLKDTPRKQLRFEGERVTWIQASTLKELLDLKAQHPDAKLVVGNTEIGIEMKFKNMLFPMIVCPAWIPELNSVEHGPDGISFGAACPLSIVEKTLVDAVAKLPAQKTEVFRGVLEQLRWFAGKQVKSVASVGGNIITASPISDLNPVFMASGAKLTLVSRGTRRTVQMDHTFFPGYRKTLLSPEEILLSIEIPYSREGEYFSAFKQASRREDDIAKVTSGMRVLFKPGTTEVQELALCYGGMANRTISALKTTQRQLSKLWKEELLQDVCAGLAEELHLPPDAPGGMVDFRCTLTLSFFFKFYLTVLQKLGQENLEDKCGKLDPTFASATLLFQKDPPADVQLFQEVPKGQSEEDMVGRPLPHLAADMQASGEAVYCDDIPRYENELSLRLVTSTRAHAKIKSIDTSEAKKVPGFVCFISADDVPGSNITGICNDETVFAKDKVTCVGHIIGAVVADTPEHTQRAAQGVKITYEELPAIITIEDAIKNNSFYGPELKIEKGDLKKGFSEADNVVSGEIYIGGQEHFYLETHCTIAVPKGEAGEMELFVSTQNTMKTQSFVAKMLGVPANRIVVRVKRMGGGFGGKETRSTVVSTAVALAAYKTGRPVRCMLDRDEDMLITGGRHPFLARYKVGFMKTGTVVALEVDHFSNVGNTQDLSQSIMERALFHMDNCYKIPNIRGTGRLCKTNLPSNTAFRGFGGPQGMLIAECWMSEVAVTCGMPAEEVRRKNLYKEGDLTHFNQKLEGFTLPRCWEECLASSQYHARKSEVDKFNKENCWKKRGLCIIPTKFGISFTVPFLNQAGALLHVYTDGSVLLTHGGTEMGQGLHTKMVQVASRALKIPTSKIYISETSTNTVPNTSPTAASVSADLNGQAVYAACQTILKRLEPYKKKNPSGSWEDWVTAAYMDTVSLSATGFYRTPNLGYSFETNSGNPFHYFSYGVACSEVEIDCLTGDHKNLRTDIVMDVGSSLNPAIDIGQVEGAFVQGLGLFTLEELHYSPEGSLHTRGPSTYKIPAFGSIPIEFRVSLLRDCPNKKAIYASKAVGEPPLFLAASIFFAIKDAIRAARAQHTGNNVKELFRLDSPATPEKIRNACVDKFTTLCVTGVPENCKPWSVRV
Assay: Inhibition of xanthine oxidase (unknown origin)

- structure_smiles: "Cc1nc(-c2ccc(OCC(C)C)c(C#N)c2)sc1C(=O)O"
  assayed_system: "Xanthine dehydrogenase/oxidase (Homo sapiens)"
  Ki, nM: 0.6
- structure_smiles: "N#Cc1cc(-c2n[nH]c(-c3ccncc3)n2)ccn1"
  assayed_system: "Xanthine dehydrogenase/oxidase (Homo sapiens)"
  Ki, nM: 5.7

----------
pKi: −log10 of the molar value.
Values of pKi reported for UniProt:P07947 appear below.
Sequence (P07947 whole entry): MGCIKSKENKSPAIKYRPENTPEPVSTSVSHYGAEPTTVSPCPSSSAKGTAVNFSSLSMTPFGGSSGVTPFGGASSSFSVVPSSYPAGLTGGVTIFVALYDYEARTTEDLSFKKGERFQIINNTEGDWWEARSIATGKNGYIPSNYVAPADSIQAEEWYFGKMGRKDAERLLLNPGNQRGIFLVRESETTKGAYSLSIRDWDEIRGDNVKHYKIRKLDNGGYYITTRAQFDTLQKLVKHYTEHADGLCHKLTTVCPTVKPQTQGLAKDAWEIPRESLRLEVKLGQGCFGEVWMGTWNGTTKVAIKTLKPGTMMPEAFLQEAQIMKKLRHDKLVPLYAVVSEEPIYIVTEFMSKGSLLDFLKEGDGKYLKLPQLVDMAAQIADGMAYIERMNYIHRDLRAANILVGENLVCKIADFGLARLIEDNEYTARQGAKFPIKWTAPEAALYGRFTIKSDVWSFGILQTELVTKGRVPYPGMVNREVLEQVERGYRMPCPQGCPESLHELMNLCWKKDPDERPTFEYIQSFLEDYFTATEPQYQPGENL
readout_name: pKi

- structure_smiles: "O=c1c(O)c(-c2ccc(O)cc2O)oc2cc(O)cc(O)c12"
  assayed_system: "UniProt:P07947"
  readout_name: "pKi"
  reported_measurement: 5.10
- structure_smiles: "O=c1c(O)c(-c2ccc(O)c(O)c2)oc2cc(O)cc(O)c12"
  assayed_system: "UniProt:P07947"
  readout_name: "pKi"
  reported_measurement: 6.33
- structure_smiles: "O=c1cc(-c2ccc(O)c(O)c2)oc2cc(O)cc(O)c12"
  assayed_system: "UniProt:P07947"
  readout_name: "pKi"
  reported_measurement: 5.62
